Quantity name: flash point (°C)

# Molecule, Numeric value
rows = [
    ("Cc1ccc(C)cc1", 26),
    ("CNC", -49.9),
    ("NCCCCCCN", 81.0),
    ("Cc1ccncc1", 39.0),
    ("C=CCCCCCCCCCCCCC", 112.0),
]

P: CCCCCC(C)=O
Q: CCCOCC
R: CCc1ccccc1O
S: CCC(C)N (centres undefined) [sec-BUTYLAMINE]
### Prompt Sequence the entries by flash point, beginning with the highest number. Submit the labels in the order that the ranking request calls for.
### Response R, P, Q, S
(R: 85.0 °C, P: 39.0 °C, Q: -19.9 °C, S: -28.8 °C)

###

Quantity name: flash point (°C)

Example entries and their recorded answers appear below.
# Compound, flash point, °C
measured = [
    ("C/C=C/CCCCC [trans-2-octene]", 14),
    ("C=CCC(C)(C)C", -12),
    ("C#CCC(C)C", -24),
    ("C/C=C/CC [trans-2-pentene]", -45),
    ("C=CCCC(C)C", -10),
    ("CC/C=C/CCC [trans-3-heptene]", -6),
]

a: CCCC1CCCCC1
b: C=CCCCCC(C)C
c: C/C=C\CC [cis-2-pentene]
d: CC(C)C(C)(C)C(C)C
### Prompt Sequence the entries by flash point, beginning with the highest number. Submit the labels in the order that the ranking request calls for.
### Response a, b, d, c

P: CCC(C)CCCC(C)C (stereo not drawn)
Q: CCC1CCCC1
### Prompt Select the item with the higher value of flash point from the options P and Q listed. Choose, then provide that item's label.
### Response P

A: Cc1cccc(C(C)C)c1
B: C/C=C/CCCC [trans-2-heptene]
### Prompt Select the item with the higher value of flash point from the options A and B listed. Choose, then provide that item's label.
### Response A
(A: 50 °C, B: -6 °C)

1: C=C(C)C(C)CC (stereo not drawn)
2: CC#CCCCCC
### Prompt Select the item with the higher value of flash point from the options 1 and 2 listed. Choose, then provide that item's label.
### Response 2

###

Quantity name: flash point (°C)

Example entries and their recorded answers appear below.
# Molecule, flash point / °C
records = [
    ("CC(C)C(C)C(C)C [2,3,4-trimethylpentane]", -0),
    ("CCC(C)(C)O [2-methyl-2-butanol]", 21),
    ("CCCCc1ccc(N)cc1 [4-butylaniline]", 102),
    ("CCCCCCc1ccccc1 [hexylbenzene]", 83),
]

1: CC1CCCC(=O)CCC1 [5-methylcyclooctanone]
2: CCCCO [1-butanol]
### Prompt Select the item with the higher value of flash point from the options 1 and 2 listed. Choose, then provide that item's label.
### Response 1
(1: 71 °C, 2: 34 °C)

###

Quantity name: flash point (°C)

# Compound, U, flash point
data = [
    ("Cc1ccc(CBr)cc1", "°C", 98.00),
    ("CCCCO.CCCCO.CCCCO.CCCCO.[Ti]", "°C", 77.00),
    ("COc1ccccc1O", "°C", 74.00),
    ("CC(CCO)CC(C)(C)C (stereo unspecified)", "°C", 93.00),
    ("CC1CC(O)CC(C)(C)C1 (stereo unspecified)", "°C", 74.00),
]

P: CC1CCC(C(C)C)C(O)C1 (stereo unspecified)
Q: Nc1ccc2c(c1)C(=O)c1ccccc1C2=O
R: CCCCNC
### Prompt Sequence the entries by flash point, beginning with the highest number. Submit the labels in the order that the ranking request calls for.
### Response Q, P, R
(Q: 283.00 °C, P: 91.00 °C, R: 13.00 °C)

I: COC(=O)CCCCC(=O)OC [dimethyl hexanedioate]
II: O=C(O)C(O)C(O)C(=O)O (stereo unspecified) [2,3-dihydroxybutanedioic acid]
### Prompt Select the item with the higher value of flash point from the options I and II listed. Choose, then provide that item's label.
### Response II
(II: 210.00 °C, I: 107.00 °C)

I: O=[N+]([O-])c1ccccc1C(F)(F)F
II: CCCCCCCCCCCCCCCCCC(=O)OCCO [2-hydroxyethyl octadecanoate]
### Prompt Select the item with the higher value of flash point from the options I and II listed. Choose, then provide that item's label.
### Response II

A: CC(=O)Nc1ccc(C)cc1 [N-(4-methylphenyl)acetamide]
B: CC(C)CCCCCCCO
C: CN(C)CCCN
### Prompt Sequence the entries by flash point, beginning with the highest number. Submit the labels in the order that the ranking request calls for.
### Response A, B, C

###

Quantity name: flash point (°C)

# Compound, flash point, °C
rows = [
    ("CO[Si](OC)(OC)c1ccccc1", 85.00),
]

1: C=C(C)C(=O)OCCC[Si](OC)(OC)OC
2: C[Si](C)(C)c1ccc(Cl)cc1
### Prompt Please compare: 1 and 2 . Report which one has the smaller flash point value. Choose, then provide that item's label.
### Response 2
(2: 49.00 °C, 1: 92.00 °C)

a: C=C[Si](OC)(OC)OC
b: CO[Si](OC)(c1ccccc1)c1ccccc1
### Prompt Please compare: a and b . Report which one has the smaller flash point value. Choose, then provide that item's label.
### Response a
(a: 23.00 °C, b: 121.00 °C)

P: C[Si](C)(Cl)CCl
Q: CCCCCCCC[Si](C)(C)Cl
### Prompt Select the item with the higher value of flash point from the options P and Q listed. Choose, then provide that item's label.
### Response Q

A: CCO[Si](C)(OCC)OCC
B: C=C[Si](C)(C)O[Si](C)(C)C
### Prompt Please compare: A and B . Report which one has the smaller flash point value. Choose, then provide that item's label.
### Response B

###

Quantity name: flash point (°C)

Example entries and their recorded answers appear below.
# Compound, Numeric value
rows = [
    ("C=C(C)CCC", -26.00),
    ("C=Cc1ccc(C)cc1.C=Cc1cccc(C)c1.C=Cc1ccccc1C", 52.00),
    ("CCOP(=O)(O)O [ethyl dihydrogen phosphate]", 116.00),
]

a: C[Si](C)(C)C
b: ClC1CCCCC1
### Prompt Please compare: a and b . Report which one has the smaller flash point value. Choose, then provide that item's label.
### Response a
(a: -27.00 °C, b: 32.00 °C)

a: CC1CCCC1
b: CCCC(C)C=O (stereo unspecified)
### Prompt Select the item with the higher value of flash point from the options a and b listed. Choose, then provide that item's label.
### Response b

###

Quantity name: flash point (°C)

Example entries and their recorded answers appear below.
# Compound, Quantity name, Numeric value
measured = [
    ("CCOC(=O)Cc1ccccc1 [ethyl 2-phenylacetate]", "flash point", 99.00),
    ("c1ccc(-c2ccc(-c3ccccc3)cc2)cc1", "flash point", 207.00),
]

A: Cc1ccco1
B: O=C1OC(=O)C2CCCCC12 (stereo not given) [3a,4,5,6,7,7a-hexahydro-2-benzofuran-1,3-dione]
C: Cc1ccc(O)cc1
### Prompt Sequence the entries by flash point, beginning with the highest number. Submit the labels in the order that the ranking request calls for.
### Response B, C, A
(B: 149.00 °C, C: 86.00 °C, A: -30.00 °C)

###

Quantity name: flash point (°C)

Example entries and their recorded answers appear below.
# Compound, flash point / °C
rows = [
    ("C=CCC(C)C", -32),
    ("CCC(C)SC(C)CC (configuration not stated) [di-sec-butylsulfide]", 39),
    ("CCC(C)(C)CC(C)C", 15),
    ("C=C(C)CCC", -27),
    ("CCc1ccc(CC)cc1", 55),
]

a: CCc1ccco1
b: CCCC(C)(C)S
### Prompt Please compare: a and b . Report which one has the smaller flash point value. Choose, then provide that item's label.
### Response a
(a: -2 °C, b: 20 °C)

###

Recorded measurements of flash point, one per entry
Give the quantity in °C, number only.

Example entries and their recorded answers appear below.
# Line notation, flash point [°C]
records = [
    ("CCC[CH2][Sn]([Cl])([Cl])[CH2]CCC", 168.00),
    ("C=C[CH2][Sn]([CH2]CCC)([CH2]CCC)[CH2]CCC", 103.00),
    ("C=[CH][Sn]([CH]=C)([CH]=C)[CH]=C", 40.00),
]

### Prompt Given the compound C=[C](OCC)[Sn]([CH2]CCC)([CH2]CCC)[CH2]CCC , what is its reported flash point?
### Response 113.00

### Prompt What about this compound? CCC[CH2][Sn]([CH2]CCC)([CH2]CCC)[c]1cccs1
### Response 106.00

### Prompt What about this compound? CCC[CH2][Sn]([CH2]CCC)([CH2]CCC)[O]C
### Response 98.00

### Prompt What about this compound? C=[CH][Sn]([Cl])([Cl])[CH]=C
### Response 204.00

### Prompt What about this compound? C[CH2][Sn]([CH2]C)([CH2]C)[CH2]C
### Response 53.00
